Molecular target: Dual specificity protein kinase CLK4 (Homo sapiens) (UniProt Q9HAZ1)
Sequence (Q9HAZ1 whole entry, looked up): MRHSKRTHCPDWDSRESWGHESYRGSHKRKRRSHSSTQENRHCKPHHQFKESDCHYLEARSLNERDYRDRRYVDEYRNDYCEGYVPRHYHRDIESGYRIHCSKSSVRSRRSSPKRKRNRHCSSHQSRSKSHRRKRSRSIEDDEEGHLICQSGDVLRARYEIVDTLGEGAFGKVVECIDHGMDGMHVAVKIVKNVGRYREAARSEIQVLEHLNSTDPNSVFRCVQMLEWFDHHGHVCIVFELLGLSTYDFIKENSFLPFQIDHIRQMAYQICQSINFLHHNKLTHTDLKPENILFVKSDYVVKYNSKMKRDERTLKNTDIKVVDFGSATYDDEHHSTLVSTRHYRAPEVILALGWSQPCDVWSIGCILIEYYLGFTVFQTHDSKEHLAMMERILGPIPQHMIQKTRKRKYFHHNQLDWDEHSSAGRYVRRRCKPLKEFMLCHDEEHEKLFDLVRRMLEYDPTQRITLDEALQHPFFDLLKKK
Assay: qHTS Assay for Inhibitors of CDC-like Kinase 4 (Kinase-Glo Assay) (AID 1770); further: nearly all actives have a fitted effect of over 65% in size
Conditions: recombinant Clk4, Kinase-Glo ATP depletion luminescence; series mostly up to 66.7 µM
Records with an inconclusive call do not appear. Calls of active or inactive are those of the source. The call rests on the fitted dose curve; in most records, active means well fitted inhibition curve with a large enough effect; inconclusive means small, poorly fitted or top-dose-only effect; inactive means flat fitted curve, though single readings scatter.
Pick one and only one: YES = active, NO = inactive

Answered cases to consult:
GIVEN_SMILES: O=c1c(CCc2ccccc2)nc2cnc(N3CCOCC3)nc2n1C1CC1
ASSAY_TARGET: Dual specificity protein kinase CLK4 (Homo sapiens) (UniProt Q9HAZ1)
CATEGORY: NO

GIVEN_SMILES: CCNc1ncc2nc(-c3cccs3)c(=O)n(CCc3ccccc3)c2n1
ASSAY_TARGET: Dual specificity protein kinase CLK4 (Homo sapiens) (UniProt Q9HAZ1)
CATEGORY: NO

GIVEN_SMILES: N#Cc1cccc(-c2cncnc2NCc2cccnc2)c1
ASSAY_TARGET: Dual specificity protein kinase CLK4 (Homo sapiens) (UniProt Q9HAZ1)
CATEGORY: NO

Next compound, please.
Called result for `COc1cccc(Cn2c(=O)c(-c3cccs3)nc3cncnc32)c1`
NO

---

Target: Lysosomal acid glucosylceramidase (Homo sapiens)
Experiment: Glucocerebrosidase-p2 (AID 348); further: potency means the concentration at half of the fitted maximal effect
Details: purified GBA, blue fluorogenic substrate, 40 min
Activity calls are given as the source filed them. Rule as the data show it: active = potency below about 10 µM; inactive = the rest.
Pick one and only one: class 1 = active, class 0 = inactive

Answered cases to consult:
GIVEN_SMILES: COc1ccc(Oc2ncc3ncc(=O)n(Cc4cccc(OC)c4)c3n2)cc1
CATEGORY: class 0
--
GIVEN_SMILES: COc1cccc(Cn2c(=O)c(-c3ccc(Cl)cc3)nc3cnc(N4CCNCC4)nc32)c1
CATEGORY: class 0
--
GIVEN_SMILES: CS(=O)(=O)N1CCC2(CC1)CN(C(c1ccccc1)c1ccccc1)C2
CATEGORY: class 0
--
GIVEN_SMILES: CC(=O)N1CCC2(CC1)CN(C(=O)Nc1cccc(C#N)c1)C2
CATEGORY: class 0
--
GIVEN_SMILES: c1cncc(CNc2ccnc(-c3cccnc3)n2)c1
CATEGORY: class 0

Called result for `c1ccc2c(NC3CC3)nc(-c3ccoc3)nc2c1`
class 1

Called result for `COc1ccc(-n2c(=O)c(-c3ccccc3)nc3cncnc32)cc1`
class 0

Called result for `O=C(c1ccco1)N1CCC2(CCCN(c3ncccn3)C2)CC1`
class 0

---

Molecular target: Glucocorticoid receptor (Homo sapiens) (UniProt P04150)
Sequence (P04150 whole entry, looked up): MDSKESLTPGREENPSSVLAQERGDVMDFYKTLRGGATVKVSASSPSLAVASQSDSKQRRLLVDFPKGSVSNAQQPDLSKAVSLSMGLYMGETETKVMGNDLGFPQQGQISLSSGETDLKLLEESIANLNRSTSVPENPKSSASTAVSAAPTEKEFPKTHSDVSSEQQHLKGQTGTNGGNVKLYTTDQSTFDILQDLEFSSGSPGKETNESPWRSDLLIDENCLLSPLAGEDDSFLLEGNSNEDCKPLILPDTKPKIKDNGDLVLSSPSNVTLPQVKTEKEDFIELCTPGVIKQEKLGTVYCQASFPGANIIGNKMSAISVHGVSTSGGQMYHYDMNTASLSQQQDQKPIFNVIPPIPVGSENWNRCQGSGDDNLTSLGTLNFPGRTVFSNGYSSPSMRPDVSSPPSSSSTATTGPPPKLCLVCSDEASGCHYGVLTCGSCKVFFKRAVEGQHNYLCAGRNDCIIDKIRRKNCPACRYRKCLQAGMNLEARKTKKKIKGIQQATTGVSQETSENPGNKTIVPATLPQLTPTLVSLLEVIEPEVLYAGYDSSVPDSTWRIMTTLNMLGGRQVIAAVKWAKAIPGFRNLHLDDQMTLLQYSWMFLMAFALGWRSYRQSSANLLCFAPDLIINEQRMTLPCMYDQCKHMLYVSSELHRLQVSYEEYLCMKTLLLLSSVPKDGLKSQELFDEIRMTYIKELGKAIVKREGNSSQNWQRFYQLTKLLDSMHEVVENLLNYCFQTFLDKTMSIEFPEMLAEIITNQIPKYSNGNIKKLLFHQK
Assay: GR-GFP Redistribution (AID 450); further: potency means the concentration at half of the fitted maximal effect
Details: U2OS GR-GFP nuclear translocation, laser cytometry, 2 h
Active and inactive are the calls of the source.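 How the source made its calls: active means compounds whose dose series gives a full or clear partial fitted curve of increased nuclear translocation; inconclusive means weak partial curve or effect only at the top dose; inactive means no dose-dependent translocation response.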
Provide the reported Potency of each item.

GIVEN_SMILES: O=c1c(-c2ccc(Cl)cc2)nc2cnc(N3CCOCC3)nc2n1Cc1ccc(F)cc1
ASSAY_TARGET: Glucocorticoid receptor (Homo sapiens) (UniProt P04150)
Potency: > 9.22 µM (inactive)
--
GIVEN_SMILES: FC(F)(F)c1ccccc1-c1nccc(NCc2ccccc2)n1
ASSAY_TARGET: Glucocorticoid receptor (Homo sapiens) (UniProt P04150)
Potency: > 46 µM (inactive)
--
GIVEN_SMILES: CCNc1ncc2nc(-c3cccs3)c(=O)n(C[C@H]3CCCO3)c2n1
ASSAY_TARGET: Glucocorticoid receptor (Homo sapiens) (UniProt P04150)
Potency: > 9.22 µM (inactive)
--
GIVEN_SMILES: COc1cccc(Cn2c(=O)c(-c3cccc(Cl)c3)nc3cncnc32)c1
ASSAY_TARGET: Glucocorticoid receptor (Homo sapiens) (UniProt P04150)
Potency: > 9.22 µM (inactive)
--
GIVEN_SMILES: COc1ccc2[nH]cc(CCNc3nc(-c4cccc(C#N)c4)nc4ccccc34)c2c1
ASSAY_TARGET: Glucocorticoid receptor (Homo sapiens) (UniProt P04150)
Potency: > 46 µM (inactive)
--
GIVEN_SMILES: FC(F)(F)c1ccccc1-c1ccc2ncnc(NCc3cccs3)c2c1
ASSAY_TARGET: Glucocorticoid receptor (Homo sapiens) (UniProt P04150)
Potency: > 46 µM (inactive)

Could I get Potency for every one of these entries?
1. c1ccc2c(N3CCOCC3)nc(-c3ccoc3)nc2c1
2. O=c1c(CCc2ccccc2)nc2cnc(N3CCOCC3)nc2n1CCc1ccccc1

> 46 µM (inactive)
> 9.22 µM (inactive)

Could I get Potency for every one of these entries?
1. CN(C)C(=O)c1ccc(-c2ccc3ncnc(Nc4ccccc4)c3c2)cc1
2. Cn1cc(C(F)(F)F)nc1-c1ccc(OC[C@@H](O)CNCCOc2ccc(O)c(C(N)=O)c2)cc1
3. Cc1nc2cnc(N3CCN(C)CC3)nc2n(C[C@H]2CCCO2)c1=O
4. COc1ccc(Oc2ncc3nc(-c4ccc(Cl)cc4)c(=O)n(C)c3n2)cc1
5. CCNc1ncc2nc(-c3cccc(C#N)c3)c(=O)n(Cc3cccc(OC)c3)c2n1
6. COc1ncc2nc(-c3cn(C)c4ccccc34)c(=O)n(CCC#N)c2n1

["> 46 µM (inactive)", "> 46 µM (inactive)", "> 9.22 µM (inactive)", "> 9.22 µM (inactive)", "> 9.22 µM (inactive)", "> 9.22 µM (inactive)"]

---

Molecular target: Dual specificity protein kinase CLK4 (Homo sapiens)
Assay: qHTS Assay for Inhibitors of CDC-like Kinase 4 (ADP-Glo Assay) (AID 1771); further: nearly all actives have a fitted effect of over 70% in size
Conditions: recombinant CLK4, ADP-Glo luminescence; series mostly up to 80 µM
Records with an inconclusive call do not appear. The source made the active and inactive calls. Calls come from the whole dose curve; as a rule, active = well fitted inhibition curve with a large enough effect; inconclusive = small, poorly fitted or top-dose-only effect; inactive = flat fitted curve, though single readings scatter.
Pick one and only one: yes (active), no (inactive)

Answered cases to consult:
GIVEN_SMILES: CNc1nc(-c2cccc(NS(C)(=O)=O)c2)nc2ccccc12
CATEGORY: yes

GIVEN_SMILES: COCCn1c(=O)c(-c2ccccc2)nc2cnc(N3CCN(C)CC3)nc21
CATEGORY: no

Called result for `O=c1c(-c2ccc(F)cc2)nc2cncnc2n1Cc1ccc(F)cc1`
no

Called result for `COCCn1c(=O)c(-c2ccccc2)nc2cncnc21`
no

Called result for `CN(C)C(=O)c1ccc(-c2cncnc2Nc2ccccc2)cc1`
no

Called result for `COc1ccc(-c2nc3cnc(N4CCOCC4)nc3n(CCc3ccccc3)c2=O)cc1`
no

Called result for `COc1cccc(-c2cc(NCc3ccccc3)ncn2)c1`
yes

Called result for `O=c1c(-c2cc(F)cc(F)c2)nc2cncnc2n1Cc1ccccc1Cl`
no

Called result for `COc1cccc(Nc2ncc3nc(-c4ccc(Cl)cc4)c(=O)n(C[C@H]4CCCO4)c3n2)c1`
no

Called result for `CNc1nc(-c2c(C)noc2C)nc2ccccc12`
yes

Called result for `CN(C)c1ncc2nc(-c3cc(F)cc(F)c3)c(=O)n(C)c2n1`
no

Called result for `COc1ccccc1CCn1c(=O)c(-c2ccc(F)c(F)c2)nc2cncnc21`
no

Called result for `CN1CCN(c2ncncc2-c2ccc(N(C)C)cc2)CC1`
no

Called result for `Cc1ccccc1-c1ccc2ncnc(N3CCNCC3)c2c1`
yes

Called result for `COc1cccc(Cn2c(=O)cnc3cnc(OCc4ccccc4)nc32)c1`
no

Called result for `COc1cccc(Nc2ncc3nc(CCc4ccccc4)c(=O)n(Cc4cccs4)c3n2)c1`
no

Called result for `COc1ccc(-n2c(=O)c(-c3ccc(F)cc3)nc3cnc(N4CCNCC4)nc32)cc1`
no

Called result for `Cc1cnc(CNc2cc(-c3ccc(C(=O)N(C)C)cc3)ncn2)cn1`
yes

Called result for `CNc1nc(-c2ccc(C(=O)N(C)C)cc2)nc2ccccc12`
yes

Called result for `c1cncc(-c2cncnc2NCc2cccs2)c1`
no

Called result for `Cc1ccccc1-c1ccc2ncnc(N(C)Cc3ccco3)c2c1`
yes

Called result for `COc1ccccc1CNc1cc(-c2ccccc2C)ncn1`
no

Called result for `N#CCCn1c(=O)c(-c2cccs2)nc2cnc(Nc3ccccc3)nc21`
no

---

Molecular target: Glucocorticoid receptor (Homo sapiens) (UniProt P04150)
Test: GR-GFP Redistribution (AID 450); further: potency means the concentration at half of the fitted maximal effect
Conditions: U2OS GR-GFP nuclear translocation, laser cytometry, 2 h
Active and inactive are the calls of the source.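 The calls were made as follows: active = compounds whose dose series gives a full or clear partial fitted curve of increased nuclear translocation; inconclusive = weak partial curve or effect only at the top dose; inactive = no dose-dependent translocation response.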
Provide the reported Potency of each item.

Below: 5 compounds and their reported Potency.
GIVEN_SMILES: N#CCCn1c(=O)c(-c2cccs2)nc2cnc(Nc3ccccc3)nc21
ASSAY_TARGET: Glucocorticoid receptor (Homo sapiens) (UniProt P04150)
REPORTED_PROPERTY: Potency
MEAS_VALUE: > 9.22 µM (inactive)
--
GIVEN_SMILES: COc1cccc(Cn2c(=O)cnc3cnc(OCc4ccccc4)nc32)c1
ASSAY_TARGET: Glucocorticoid receptor (Homo sapiens) (UniProt P04150)
REPORTED_PROPERTY: Potency
MEAS_VALUE: > 9.22 µM (inactive)
--
GIVEN_SMILES: N#CCCn1c(=O)cnc2cnc(N3CCNCC3)nc21
ASSAY_TARGET: Glucocorticoid receptor (Homo sapiens) (UniProt P04150)
REPORTED_PROPERTY: Potency
MEAS_VALUE: > 9.22 µM (inactive)
--
GIVEN_SMILES: Cc1cccc(CNc2ccnc(-c3ccccc3Cl)n2)c1
ASSAY_TARGET: Glucocorticoid receptor (Homo sapiens) (UniProt P04150)
REPORTED_PROPERTY: Potency
MEAS_VALUE: > 46 µM (inactive)
--
GIVEN_SMILES: COc1ccc(-c2nc3cnc(N4CCOCC4)nc3n(CCC#N)c2=O)cc1
ASSAY_TARGET: Glucocorticoid receptor (Homo sapiens) (UniProt P04150)
REPORTED_PROPERTY: Potency
MEAS_VALUE: > 9.22 µM (inactive)

Could I get Potency for every one of these entries?
1. c1cncc(-c2nccc(-n3ccnc3)n2)c1
2. CN(C)C(=O)c1ccc(-c2nc(N(C)C)c3ccccc3n2)cc1
3. COCCn1c(=O)c(-c2ccc(F)cc2)nc2cnc(Oc3cccc(Cl)c3)nc21
4. CN(C)C(=O)c1ccc(-c2nccc(N(C)Cc3ccco3)n2)cc1
5. COc1ccc2[nH]cc(CCNc3cc(-c4cccnc4)ncn3)c2c1
6. Cn1c(=O)c(CCc2ccccc2)nc2cnc(N3CCOCC3)nc21

["> 46 µM (inactive)", "> 46 µM (inactive)", "> 9.22 µM (inactive)", "> 46 µM (inactive)", "> 46 µM (inactive)", "> 9.22 µM (inactive)"]

Could I get Potency for every one of these entries?
1. COCCn1c(=O)c(-c2ccc(OC)cc2)nc2cnc(OCc3ccccc3)nc21
2. COCCn1c(=O)c(-c2cccs2)nc2cnc(OCc3ccccc3)nc21
3. COc1c(O)cc2c(c1O)[C@@H]1O[C@@H](CO)[C@@H](O)[C@@H](O)[C@@H]1OC2=O

1. > 9.22 µM (inactive)
2. > 9.22 µM (inactive)
3. > 20.6 µM (inactive)

Could I get Potency for every one of these entries?
1. CN(C)C(=O)c1ccc(-c2ccc3ncnc(N4CCOCC4)c3c2)cc1
2. COc1ccc(Oc2ncc3ncc(=O)n(-c4ccc(OC)cc4)c3n2)cc1
3. NC(=NCc1ccc(Cl)c(Cl)c1)NC(=O)c1nc(Cl)c(N)nc1N
4. N#Cc1cccc(-c2ccc3ncnc(NCc4ccccc4)c3c2)c1
5. CCNc1ncc2nc(-c3cccs3)c(=O)n(CCc3ccccc3)c2n1
6. COc1cccc(Nc2ncc3ncc(=O)n(Cc4cccs4)c3n2)c1
7. CS(=O)(=O)Nc1cccc(-c2nc(NCCN3CCOCC3)c3ccccc3n2)c1

["> 46 µM (inactive)", "> 9.22 µM (inactive)", "> 46 µM (inactive)", "> 46 µM (inactive)", "> 9.22 µM (inactive)", "> 9.22 µM (inactive)", "> 46 µM (inactive)"]

Could I get Potency for every one of these entries?
1. c1ccc(Nc2ncnc3ccc(-c4ccoc4)cc23)cc1
2. COc1ccc2[nH]cc(CCNc3ccnc(-c4cccc(NS(C)(=O)=O)c4)n3)c2c1
3. c1ccc(CNc2ccnc(-c3ccc4c(c3)OCO4)n2)cc1
4. Cc1nc2cnc(OCc3ccccc3)nc2n(CCC#N)c1=O

1. > 46 µM (inactive)
2. > 46 µM (inactive)
3. > 46 µM (inactive)
4. > 9.22 µM (inactive)
